Recorded normalized growth by entry
experiment: chemical genetic growth profiling, strain panel (AID 1159580);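 also: tested at 20 µM; growth read once vehicle control cultures reached saturation at 30 °C; 1 = growth at the plate median or of vehicle wells; lower values mean less growth of the strain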; details: S. cerevisiae deletion strains, growth OD, locus YBR009C, strain hhf1, hits give low values
Hit rate of the full screen: of about 5,500 compounds, about 2,000 (36%) were called active. Roughly 18% stayed inconclusive and do not appear here. Some of the results follow.
Please respond with just the number, no unit label.

[
  {
    "Molecule": "CC(=O)O[C@H]1C(=O)[C@@]2(C)C([C@H](OC(=O)c3ccccc3)[C@]3(O)C[C@H](OC(=O)[C@H](O)[C@@H](NC(=O)c4ccccc4)c4ccccc4)C(C)=C1C3(C)C)[C@]1(OC(C)=O)CO[C@@H]1C[C@@H]2O (some centres undefined)",
    "normalized growth": 0.989
  },
  {
    "Molecule": "CCc1nc(N)nc(N)c1-c1ccc(Cl)cc1",
    "normalized growth": 0.997
  },
  {
    "Molecule": "C1CCc2nnnn2CC1",
    "normalized growth": 1.01
  }
]

Need normalized growth, item C[N+](C)(C)CC(=O)[O-]
1

Need normalized growth, item C/C=C(/C(=C/C)c1ccc(O)cc1)c1ccc(O)cc1
0.929

Need normalized growth, item CCSC(=N)N
1.01

Need normalized growth, item COc1ccc(C(=O)c2ccccc2)c(O)c1
0.789

Need normalized growth, item NC[C@@H]1O[C@H](O[C@@H]2[C@@H](CO)OC(O[C@@H]3[C@@H](O)[C@H](N)C[C@H](N)[C@H]3OC3O[C@H](CN)[C@@H](O)[C@H](O)[C@H]3N)[C@@H]2O)[C@H](N)[C@@H](O)[C@@H]1O (some centres undefined)
1.03

Need normalized growth, item NC/C=C/C(=O)O
1.01

Need normalized growth, item S=C=NCc1ccccc1
0.0753

Need normalized growth, item CO[C@H]1C[C@H](O[C@H]2[C@H](C)[C@@H](OC3O[C@H](C)C[C@H](N(C)C)[C@H]3O)[C@@H](C)C[C@]3(CO3)C(=O)[C@H](C)[C@@H](O)[C@@H](C)[C@@H](C)OC(=O)[C@@H]2C)O[C@@H](C)[C@@H]1O (some centres undefined)
0.96

Need normalized growth, item COc1ccc(-c2cc(=O)c3c(O)cc(OC)c(OC)c3o2)c(OC)c1
0.964

Need normalized growth, item CC(=O)O[C@H]1C(=O)[C@@]2(C)C([C@H](OC(=O)c3ccccc3)[C@]3(O)C[C@H](O)C(C)=C1C3(C)C)[C@]1(OC(C)=O)CO[C@@H]1C[C@@H]2O (some centres undefined)
0.986

Need normalized growth, item N#Cc1c(Cl)c(Cl)c(Cl)c(C#N)c1Cl
0.0742

Need normalized growth, item CCOC(=O)c1ncn2c1CN(C)C(=O)c1cc(F)ccc1-2
1.03

Need normalized growth, item O=C(O)COc1cc(Cl)c(Cl)cc1Cl
1
